Reference source for all entries: paper PMC3082038

Assay: Plasma pharmacokinetics of TSU-68 in phase I patients
Type: in vivo, human
Conditions: human, plasma, oral, 200 mg/m2, AUC Day 28, Pt 13, Colon ca., t.i.d. 200 mg/m^2 (1200 mg/day)
measured quantity: AUC (ng·h/mL)
Hi! Could you send only the number? It should be in ng·h/mL, unit omitted.

Request: Which AUC reading was recorded for the compound Cc1[nH]c(/C=C2\C(=O)Nc3ccccc32)c(C)c1CCC(=O)O ?
Result: 25300

====

Test: Plasma pharmacokinetics of TSU-68 in phase I patients
Type: in vivo, human
Conditions: human, plasma, oral, 500 mg/m2, C max, b.i.d. after meal, 56th dose, 500 mg/m^2, n=3, mean ± SD
measured quantity: Cmax

Request: Looking for the measured Cmax of Cc1[nH]c(/C=C2\C(=O)Nc3ccccc32)c(C)c1CCC(=O)O [TSU-68] , can you help?
Result: 7510 ng/mL
